Test system: MDAMB231
assay.explanation: CellTiter-Blue cell-based survival/proliferation assay, MDAMB231
condition.parameters: Homo sapiens, MDA-MB-231; MDAMB231 breast tumor cell line, 48 h
# key: entry, value: IC50

compound | IC50
CCOCc1cccc(Nc2ncc(-c3ccc(-n4cccn4)cc3)o2)c1 [Example 020] | 100 to 500 nM
Cc1ccc(C(=O)NCCN2CCOCC2)cc1Nc1ncc(-c2ccc(-n3cccn3)cc2)o1 [Example 005] | > 1000 nM
CCOCc1ccc(C)c(Nc2ncc(-c3ccc(-n4nccc4C)cc3)o2)c1 [Example 041] | > 1000 nM
CC(=O)NCCOCc1ccc(C)c(Nc2ncc(-c3ccc(-n4cccn4)cc3)o2)c1 [Example 025] | > 1000 nM
CCOCc1ccc(C)c(Nc2ncc(-c3ccc(-c4cn[nH]c4)cc3)o2)c1 [Example 060] | > 1000 nM
CCOCc1ccc(C)c(Nc2nc(-c3ccc(N4CCNC4=O)cc3)cs2)c1 [Example 003] | ≤ 100 nM
CCOCc1ccc(C)c(Nc2ncc(-c3ccc(N4CCN(CCN)C4=O)cc3)o2)c1 [Example 045] | > 1000 nM
CCOCc1ccc(C)c(Nc2ncc(-c3ccc(N4C(=O)NC[C@H]4C)cc3)o2)c1 [Example 051] | > 1000 nM

###

# key: entry, value: IC50
Tested on: CLS354
assay.explanation: CellTiter-Blue cell-based survival/proliferation assay, CLS354
condition.parameters: Homo sapiens, CLS-354; CLS354_4 head & neck tumor cell line, 48 h
readout: IC50

entry.smiles | endpoint.value
CCOCc1ccc(C)c(Nc2ncc(-c3ccc(-c4nccs4)cc3)o2)c1 | > 1000 nM
CCOCc1ccc(C)c(Nc2ncc(-c3ccc(-n4ccc(C)n4)cc3)o2)c1 | > 1000 nM
CCOCc1ccc(C)c(Nc2nc(-c3ccc(N4CCNC4=O)cc3)ns2)c1 | ≤ 100 nM
CCOCc1ccc(C)c(Nc2ncc(-c3ccc(N4CCN(CCNC(C)=O)C4=O)cc3)o2)c1 | > 1000 nM
CNC(=O)c1ccc(C)c(Nc2ncc(-c3ccc(-n4cccn4)cc3)o2)c1 | > 1000 nM
CCOCc1ccc(C)c(Nc2ncc(-c3ccc(-c4ccccn4)cc3)o2)c1 | 500 to 1000 nM
CCOCc1cc(C)cc(Nc2ncc(-c3ccc(-n4cccn4)cc3)o2)c1 | 100 to 500 nM
CCOCc1ccc(C)c(Nc2ncc(-c3ccc(-n4cccn4)c(OC)c3)o2)c1 | > 1000 nM
CCOCc1cc(C)cc(Nc2nc(-c3ccc(N4CCNC4=O)cc3)cs2)c1 | ≤ 100 nM
CCOCc1ccc(C)c(Nc2ncc(-c3ccc(N4CCN(CCOC)C4=O)cc3)o2)c1 | > 1000 nM
COc1ccc(C)c(Nc2ncc(-c3ccc(-n4cccn4)nc3)o2)c1 | > 1000 nM
CCOCc1ccc(C)c(Nc2ncc(-c3ccc(-n4cccn4)cc3)s2)c1 | > 1000 nM

###

Test system: DLD1
assay.explanation: CellTiter-Blue cell-based survival/proliferation assay, DLD1
condition.parameters: Homo sapiens, DLD-1; DLD_1 colorectal tumor cell line, 48 h
# key: entry, value: IC50
readout: IC50

compound | readout | endpoint.value
Cc1ccc(C(=O)NCCN2CCN(C)CC2)cc1Nc1ncc(-c2ccc(-n3cccn3)cc2)o1 [Example 032] | IC50 | > 1000 nM
CCOCc1ccc(C)c(Nc2ncc(-c3ccc(N4CCN(CCNC(C)=O)C4=O)cc3)o2)c1 [Example 046] | IC50 | > 1000 nM
CCOCc1ccc(C)c(Nc2ncc(-c3ccc(-n4ccc(C)n4)cc3)o2)c1 [Example 039] | IC50 | > 1000 nM
CCOCc1cc(C)cc(Nc2ncc(-c3ccc(-n4cccn4)cc3)o2)c1 [Example 021] | IC50 | 500 to 1000 nM
CCOCc1ccc(C)c(Nc2nc(-c3ccc(N4CCNC4=O)cc3)cs2)c1 [Example 003] | IC50 | ≤ 100 nM
CCOCc1ccc(C)c(Nc2ncc(-c3ccc(N4C(=O)NC[C@H]4C)nc3)o2)c1 [Example 058] | IC50 | > 1000 nM
CCOCc1ccc(C)c(Nc2ncc(-c3ccc(-c4ccn[nH]4)cc3)o2)c1 [Example 057] | IC50 | > 1000 nM
CCOCc1cc(Nc2ncc(-c3ccc(N4CCNC4=O)cc3)o2)cc(OCCO)c1 [Example 059] | IC50 | > 1000 nM
